// data source = patent US8703825B2

This section presents molecules with their documented CC50 at 48 h values.
Experiment: in vitro
Type: cell-based
Conditions: human

molecule | CC50 at 48 h
N=C(N)NCCc1ccc(OCCCCCCOc2ccc(CCNC(=N)N)cc2)cc1 [compound 6] | 2 to 4 µg/mL
N=C(N)c1ccc(OCCCCCCOc2ccc(C(=N)N)cc2)cc1 [HX, hexamidine] | 8 to 16 µg/mL

* * *

Test system: Staphylococcus aureus ATCC 25923
Assay: MIC by microdilution in liquid medium (CLSI / CA-SFM)
Type: cell-based
Conditions: Staphylococcus aureus, ATCC25923, S. aureus ATCC 25923, reference strain; read-out: MIC
Measured MIC, listed per entry.

molecule | measured-target | unit-info | cmp | MIC
N=C(N)CCc1ccc(OCCCCOc2ccc(CCC(=N)N)cc2)cc1 [compound 104] | Staphylococcus aureus ATCC 25923 | µg/mL | = | 2
[H]/N=C(\N/C(=N/[H])NCCCCCCNC(=N)NC(=N)Nc1ccc(Cl)cc1)Nc1ccc(Cl)cc1 [CHX, chlorhexidine] | Staphylococcus aureus ATCC 25923 | µg/mL | = | 0.5
N=C(N)NCCc1ccc(OCCCCOc2ccc(CCNC(=N)N)cc2)cc1 [compound 4] | Staphylococcus aureus ATCC 25923 | µg/mL | = | 2
N=C(N)NCCc1ccc(OCCCCCCCCCCOc2ccc(CCNC(=N)N)cc2)cc1 [compound 10] | Staphylococcus aureus ATCC 25923 | µg/mL | < | 1
N=C(N)CCc1ccc(OCCCCCCCCCCOc2ccc(CCC(=N)N)cc2)cc1 [compound 110] | Staphylococcus aureus ATCC 25923 | µg/mL | = | 1
